Target: T1, rat VPAC1 receptor (rat, UniProt P30083 31-459)
T1 sequence (looked up): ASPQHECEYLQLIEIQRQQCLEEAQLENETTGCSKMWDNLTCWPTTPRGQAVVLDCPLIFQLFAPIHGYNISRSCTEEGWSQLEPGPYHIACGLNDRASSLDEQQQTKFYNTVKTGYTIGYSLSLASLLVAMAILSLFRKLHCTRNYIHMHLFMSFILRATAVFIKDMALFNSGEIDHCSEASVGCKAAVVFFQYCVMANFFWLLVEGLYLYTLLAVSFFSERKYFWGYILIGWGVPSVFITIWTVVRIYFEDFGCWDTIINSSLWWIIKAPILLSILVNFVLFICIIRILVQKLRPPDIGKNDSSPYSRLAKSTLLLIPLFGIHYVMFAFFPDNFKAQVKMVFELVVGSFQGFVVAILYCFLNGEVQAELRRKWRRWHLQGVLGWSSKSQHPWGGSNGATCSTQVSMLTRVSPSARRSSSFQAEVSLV
Assay: cell-based or functional assay
READOUT TYPE: Rat VPAC1 Receptor: DiscoveRx: (EC50; nM)

Solved entries:
{"BINDER": "HSDAVFTEQYTXLRXQVAXXXYLQSIXXGGPSSGAPPPC (C6-HSDAVFTEQY(OMe)TOrnLRAibQVAK(CO(CH2)2SPEG20K)AibOrnYLQSIOrnOrnGGPSSGAPPPC(PEG20K)-NH2) [P492]", "MEASURED RESULT": "> 4000 nM"}
{"BINDER": "HSDAVFTEQYTXLRXQVAAXXYLQSIXXGGPSSGAPPPS (C6-HSDAVFTEQY(OMe)TOrnLRAibQVAAK(CO(CH2)2SPEG40K)OrnYLQSIOrnOrnGGPSSGAPPPS-NH2) [P475]", "MEASURED RESULT": "> 1000 nM"}

// next item, Rat VPAC1 Receptor: DiscoveRx: (EC50; nM) requested
Can you look up the measured Rat VPAC1 Receptor: DiscoveRx: (EC50; nM) of HSDAVFTEQYTXLRXQVAAXXYLQSCXXGGPSSGAPPPC (C6-HSDAVFTEQY(OMe)TOrnLRAibQVAAAibOrnYLQSC(PEG20K)OrnOrnGGPSSGAPPPC(PEG20K)-NH2) [P503] for me?
> 4000 nM

The origin of these recorded values is patent US20080234198A1.
